These entries and their values trace back to paper PMC9402538.

# study system: T1, APC (303-739) (UniProt P25054 303-739)
# T1 construct: adenomatous polyposis coli (APC), residues 303-739; pET28a construct; also called APC WT; adenomatous polyposis coli; source: E. coli BL21 (DE3), purified (Ni-NTA)
# T1 sequence (looked up): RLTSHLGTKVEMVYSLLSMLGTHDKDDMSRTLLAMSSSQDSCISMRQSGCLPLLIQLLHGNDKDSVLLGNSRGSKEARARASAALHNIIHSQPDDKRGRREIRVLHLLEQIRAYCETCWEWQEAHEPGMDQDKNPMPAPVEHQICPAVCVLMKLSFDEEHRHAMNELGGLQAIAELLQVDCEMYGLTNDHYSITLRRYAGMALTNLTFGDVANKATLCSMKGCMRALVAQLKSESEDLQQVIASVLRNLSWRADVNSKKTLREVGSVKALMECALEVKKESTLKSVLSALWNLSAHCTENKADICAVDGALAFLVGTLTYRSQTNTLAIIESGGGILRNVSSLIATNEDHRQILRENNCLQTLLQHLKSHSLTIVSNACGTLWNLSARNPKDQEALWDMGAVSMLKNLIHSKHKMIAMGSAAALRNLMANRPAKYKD
# protocol text: fluorescence polarisation; competition with tracer 1: APC (303-739) 1.0 μM and tracer 1 20 nM (Table 2), serial dilution of peptide
# condition details: both partners purified
[ ]: non-standard residue; d: D form. The star is where a group is joined. Ala(cPent) = N[C@@H](CC1CCCC1)C(=O)O; Bz = O=C(c1ccccc1)*
Quick rule for you: IC50 under 600 nM gets TRUE, anything else gets FALSE.

Here's what some known entries look like.
binder="{oxazole‑5‑carbonyl}-AGESLYE-NH2 [MAI-460]" cat=FALSE
binder="{morpholine‑4‑carbonyl}-AGESLYE-NH2 [MAI-451]" cat=TRUE

Q: Find out if reported IC50 for Bz-AGES[Ala(cPent)]YE-NH2 (SMILES C[C@H](NC(=O)c1ccccc1)C(=O)NCC(=O)N[C@@H](CCC(=O)O)C(=O)N[C@@H](CO)C(=O)N[C@@H](CC1CCCC1)C(=O)N[C@@H](Cc1ccc(O)cc1)C(=O)N[C@@H](CCC(=O)O)C(N)=O) [MAI-461] is less than 600 nM
Result: FALSE

Q: Find out if reported IC50 for {benzofuran‑2‑carbonyl}-AGESLYE-NH2 [MAI-453] is less than 600 nM
Result: TRUE
